Target: Recombinant purified human BTK (Homo sapiens, UniProt Q06187)
Construct: purchased Promega V9071
Sequence (Q06187 whole entry): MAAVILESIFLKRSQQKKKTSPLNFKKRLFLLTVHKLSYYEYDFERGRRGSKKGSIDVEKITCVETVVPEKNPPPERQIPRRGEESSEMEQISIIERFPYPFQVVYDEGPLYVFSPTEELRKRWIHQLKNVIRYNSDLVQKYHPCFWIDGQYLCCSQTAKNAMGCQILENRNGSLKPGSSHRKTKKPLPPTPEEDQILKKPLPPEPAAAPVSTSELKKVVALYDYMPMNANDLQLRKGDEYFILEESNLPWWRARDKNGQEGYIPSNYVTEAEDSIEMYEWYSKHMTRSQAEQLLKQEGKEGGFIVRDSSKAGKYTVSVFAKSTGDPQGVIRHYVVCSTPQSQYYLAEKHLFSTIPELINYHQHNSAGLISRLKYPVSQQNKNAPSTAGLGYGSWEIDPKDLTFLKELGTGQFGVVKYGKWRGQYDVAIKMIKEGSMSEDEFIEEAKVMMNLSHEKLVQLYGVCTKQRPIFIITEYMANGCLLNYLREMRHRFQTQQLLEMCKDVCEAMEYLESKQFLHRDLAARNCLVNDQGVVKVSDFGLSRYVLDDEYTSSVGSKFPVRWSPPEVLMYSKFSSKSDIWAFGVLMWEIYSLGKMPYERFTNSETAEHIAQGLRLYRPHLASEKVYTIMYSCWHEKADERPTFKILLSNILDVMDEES
Experiment: BTK kinase inhibitory activity, ADP-Glo kinase assay (Promega V9071)
Type: biochemical
Conditions: ATP 10 uM, 8 ng BTK per reaction, 1 hour 30 °C, chemiluminescence
endpoint: IC50 (nM)

1. C=CC(=O)N1CCC[C@@H](Sc2nc(Nc3cnn(CC)c3)nc3[nH]ccc23)C1	2.7
2. C=CC(=O)N1CCC[C@@H](Nc2nc(Nc3cnn(CCC)c3)nc3[nH]ncc23)C1	1.1
3. CCn1cc(Nc2nc(N[C@@H]3CCCN(C(=O)/C(C#N)=C/C(C)C)C3)c3c(Cl)c[nH]c3n2)cn1	0.9
4. C=CC(=O)N1CCC[C@@H](Sc2nc(Nc3cnn(CC(F)F)c3)nc3[nH]nc(Cl)c23)C1	1.3

(A) C=CC(=O)N1CCC[C@@H](Nc2nc(Nc3cnn(CC)c3)nc3[nH]cc(C#N)c23)C1
(B) C=CC(=O)N1CCC[C@@H](Nc2nc(Nc3cnn(C)c3)nc3[nH]cc(Cl)c23)C1
Prompt: Select one: A or B . Criterion: greater recorded IC50. Pick one; state its label.
Response: B
(B: 8.6 nM, A: 1.1 nM)

(1) C=CC(=O)N1CCC[C@@H](Sc2nc(Nc3cnn(C(C)(C)C)c3)nc3[nH]nc(Cl)c23)C1
(2) C=CC(=O)N1CC[C@@H](F)[C@@H](Nc2nc(Nc3cnn(CC)c3)nc3[nH]nc(Cl)c23)C1
(3) C=CC(=O)N1CCC[C@@H](Nc2nc(Nc3ccc(N4CCCC4)cc3)nc3[nH]ccc23)C1
(4) C=CC(=O)N1CC[C@@H](C)[C@@H](Nc2nc(Nc3cnn(CC(F)(F)F)c3)nc3[nH]nc(Cl)c23)C1
(5) C=CC(=O)N1CCC[C@@H](Nc2nc(Nc3cnn(CCOC)c3)nc3[nH]ccc23)C1
Prompt: # ascending order, key=IC50 Could you list the labels in the order requested?
Response: 2, 1, 4, 5, 3

* * *

Biological target: Recombinant purified human JAK3 (Homo sapiens, UniProt P52333)
Assay: JAK3 kinase inhibitory activity, ADP-Glo kinase assay (Promega V9441)
Conditions: ATP 5 uM, 4 ng JAK3 per reaction, 1 hour 30 °C, chemiluminescence
endpoint: IC50 (nM)

1. C=CC(=O)N1CCC[C@@H](Sc2nc(Nc3cnn(CC)c3)nc3[nH]ncc23)C1	3.6

(1) C=CC(=O)N1CCC[C@@H](Nc2nc(Nc3cnn(CC(F)F)c3)nc3[nH]nc(Cl)c23)C1 [Example 44]
(2) C=CC(=O)N1CCC[C@@H](Nc2nc(Nc3cnn(C4CC4)c3)nc3[nH]cc(C)c23)C1
(3) C=CC(=O)N1CCC[C@@H](Nc2nc(Nc3cnn(C)c3)nc3[nH]ncc23)C1
Prompt: List items by IC50 in falling order. Could you list the labels in the order requested?
Response: 3, 2, 1
(3: 10.7 nM, 2: 0.7 nM, 1: 0.3 nM)

* * *

Biological target: Recombinant purified human JAK3 (Homo sapiens)
Experiment: JAK3 kinase inhibitory activity, ADP-Glo kinase assay (Promega V9441)
Conditions: ATP 5 uM, 4 ng JAK3 per reaction, 1 hour 30 °C, chemiluminescence
pIC50: −log10 of the molar value.
endpoint: pIC50

# count of solved cases: 2
1. C=CC(=O)N1CC[C@@H](C)[C@@H](Nc2nc(Nc3cnn(C)c3)nc3[nH]nc(Cl)c23)C1	7.84
2. C=CC(=O)N1CC[C@@H](C)[C@@H](Nc2nc(Nc3cnn(CC(C)C)c3)nc3[nH]nc(Cl)c23)C1	8.08

(a) C=CC(=O)N1CCC[C@@H](N(C)c2nc(Nc3cnn(CC)c3)nc3[nH]cc(F)c23)C1
(b) C=CC(=O)N1CCC[C@@H](Nc2nc(Nc3cccc(NC(=O)N4CCCC4)c3)nc3[nH]ccc23)C1
Prompt: Between a and b , which one has the lower reported pIC50 value? Pick one; state its label.
Response: a
(a: 7.79, b: 8.05)

* * *

Biological target: Recombinant purified human JAK3 (Homo sapiens)
Experiment: JAK3 kinase inhibitory activity, ADP-Glo kinase assay (Promega V9441)
Conditions: ATP 5 uM, 4 ng JAK3 per reaction, 1 hour 30 °C, chemiluminescence
pIC50: −log10 of the molar value.
endpoint: pIC50

1. C=CC(=O)N1CCC[C@@H](Nc2nc(Nc3cnn(CCN(CC)CC)c3)nc3[nH]nc(Cl)c23)C1 [Example 57]	9.40

(1) C=CC(=O)N1CC[C@@H](C)[C@@H](Nc2nc(Nc3cnn(C4CC4)c3)nc3[nH]nc(Cl)c23)C1 [Example 94]
(2) C=CC(=O)N1CCC[C@@H](Nc2nc(Nc3cnn(CC)c3)nc3[nH]cc(C#N)c23)C1 [Example 88]
Prompt: Between 1 and 2 , which one has the lower reported pIC50 value? Pick one; state its label.
Response: 1
(1: 8.35, 2: 9.70)

* * *

Target: Recombinant purified human JAK3 (Homo sapiens, UniProt P52333)
Sequence (P52333 1-1124): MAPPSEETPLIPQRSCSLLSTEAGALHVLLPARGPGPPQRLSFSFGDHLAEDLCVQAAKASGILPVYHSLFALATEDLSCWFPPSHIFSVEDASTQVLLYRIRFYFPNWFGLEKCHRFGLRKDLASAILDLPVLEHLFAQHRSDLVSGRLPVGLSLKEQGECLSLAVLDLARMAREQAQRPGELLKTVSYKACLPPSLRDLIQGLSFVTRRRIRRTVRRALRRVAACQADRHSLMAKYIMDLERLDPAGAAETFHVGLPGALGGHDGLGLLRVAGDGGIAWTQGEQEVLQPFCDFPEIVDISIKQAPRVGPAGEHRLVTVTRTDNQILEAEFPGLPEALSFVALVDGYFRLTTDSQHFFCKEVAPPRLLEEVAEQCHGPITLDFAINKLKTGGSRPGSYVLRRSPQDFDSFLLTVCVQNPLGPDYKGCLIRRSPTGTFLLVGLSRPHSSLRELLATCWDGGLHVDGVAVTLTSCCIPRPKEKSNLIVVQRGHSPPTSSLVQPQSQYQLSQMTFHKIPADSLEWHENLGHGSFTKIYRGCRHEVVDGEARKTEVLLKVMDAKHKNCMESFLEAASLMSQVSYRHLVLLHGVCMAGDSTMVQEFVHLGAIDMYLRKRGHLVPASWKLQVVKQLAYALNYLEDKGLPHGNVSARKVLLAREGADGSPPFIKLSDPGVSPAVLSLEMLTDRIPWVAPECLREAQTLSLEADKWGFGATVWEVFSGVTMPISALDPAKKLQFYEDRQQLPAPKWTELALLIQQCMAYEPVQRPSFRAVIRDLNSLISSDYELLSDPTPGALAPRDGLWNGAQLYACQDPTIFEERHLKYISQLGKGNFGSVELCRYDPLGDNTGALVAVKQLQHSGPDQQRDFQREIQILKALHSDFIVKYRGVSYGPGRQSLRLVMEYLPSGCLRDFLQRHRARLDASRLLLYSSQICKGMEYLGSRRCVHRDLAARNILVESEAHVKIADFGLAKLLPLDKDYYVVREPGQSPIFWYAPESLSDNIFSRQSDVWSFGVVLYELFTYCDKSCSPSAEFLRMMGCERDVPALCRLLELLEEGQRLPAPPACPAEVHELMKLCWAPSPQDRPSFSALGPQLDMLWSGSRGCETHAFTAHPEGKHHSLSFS
Experiment: JAK3 kinase inhibitory activity, ADP-Glo kinase assay (Promega V9441)
Details: ATP 5 uM, 4 ng JAK3 per reaction, 1 hour 30 °C, chemiluminescence
pIC50: −log10 of the molar value. Structures can show the parent of a compound that is named as a salt.
endpoint: pIC50

1. N#C/C(=C\C1CCCC1)C(=O)N1CCC[C@@H](Nc2nc(Nc3cnn(C4CC4)c3)nc3[nH]nc(Cl)c23)C1 [Example 165]	8.66

(P) C=CC(=O)N1CCC[C@@H](Oc2nc(Nc3cnn(CC)c3)nc3[nH]nc(Cl)c23)C1 [Example 147]
(Q) C=CC(=O)N1CCC[C@@H](Nc2nc(Nc3cnn(C4CC4)c3)nc3[nH]nc(C)c23)C1 [Example 188]
Prompt: Between P and Q , which one has the lower reported pIC50 value? Pick one; state its label.
Response: Q
(Q: 7.63, P: 8.85)

(a) C=CC(=O)N1CCC[C@@H](N(C)c2nc(Nc3cnn(CC(F)F)c3)nc3[nH]ccc23)C1 [Example 103]
(b) C=CC(=O)N1CCC[C@@H](Nc2nc(Nc3cnn(Cc4cccc(OC)c4)c3)nc3[nH]cc(Cl)c23)C1 [Example 41]
(c) C=CC(=O)N1CCC[C@@H](Nc2nc(Nc3cnn(C4CC4)c3)nc3[nH]cc(Cl)c23)C1 [Example 62]
(d) C=CC(=O)N1CCC[C@@H](Nc2nc(Nc3ccc(-n4nc(C)cc4C)cc3)nc3[nH]nc(Cl)c23)C1 [Example 43]
(e) C=CC(=O)N1CCC[C@@H](Nc2nc(Nc3cnn(CC)c3)nc3[nH]nc(SC)c23)C1 [Example 189]
Prompt: # ascending order, key=pIC50 Could you list the labels in the order requested?
Response: d, e, a, b, c
(d: 8.00, e: 8.47, a: 8.89, b: 9.30, c: 9.70)

(I) C=CC(=O)N1CCC[C@@H](Oc2nc(Nc3cnn(CC)c3)nc3[nH]ccc23)C1 [Example 151]
(II) C=CC(=O)N1CCC[C@@H](Nc2nc(Nc3cnn(C4CCOCC4)c3)nc3[nH]ncc23)C1 [Example 71]
(III) C=CC(=O)N1CCC[C@@H](Sc2nc(Nc3cnn(CC)c3)nc3[nH]cc(F)c23)C1 [Example 85]
(IV) C=CC(=O)N1CCC[C@@H](N(C)c2nc(Nc3cnoc3)nc3[nH]ccc23)C1 [Example 102]
(V) C=CC(=O)N1CCC[C@@H](Nc2nc(Nc3cnn(CC(=O)NC)c3)nc3[nH]ncc23)C1 [Example 35]
Prompt: # ascending order, key=pIC50 Could you list the labels in the order requested?
Response: IV, V, II, III, I

(1) C=CC(=O)N1CCC[C@@H](Nc2nc(Nc3cnn(CC(F)F)c3)nc3[nH]nc(Cl)c23)C1 [Example 90, hydrochloride]
(2) C=CC(=O)N1CC[C@@H](C)[C@@H](Nc2nc(Nc3cnn(CC)c3)nc3[nH]cc(F)c23)C1 [Example 84]
(3) C=CC(=O)N1CC[C@@H](C)[C@@H](Nc2nc(Nc3cnn(C4CC4)c3)nc3[nH]nc(SC)c23)C1 [Example 135]
(4) C=CC(=O)N1CCC[C@@H](Nc2nc(Nc3cnn(C(C)(C)C)c3)nc3[nH]cc(Cl)c23)C1 [Example 70]
Prompt: # ascending order, key=pIC50 Could you list the labels in the order requested?
Response: 3, 2, 1, 4
(3: 7.37, 2: 8.42, 1: 9.30, 4: 9.70)

(1) CC(C)(C)/C=C(\C#N)C(=O)N1CCC[C@@H](Nc2nc(Nc3cnn(C4CC4)c3)nc3[nH]nc(Cl)c23)C1 [Example 163]
(2) C=CC(=O)N1CCC[C@@H](Nc2nc(Nc3cnoc3)nc3[nH]cc(Cl)c23)C1 [Example 96]
Prompt: Between 1 and 2 , which one has the lower reported pIC50 value? Pick one; state its label.
Response: 1
(1: 8.57, 2: 9.15)

Where do these numbers come from? They come from patent EP3478687B1.
